System: Pyricularia grisea
Assay: microbe, parasite or virus in culture
Type: functional
Details: ATCC 64413, 120 h
Here, each record is paired with measured inhibition at 10 µg/mL data.
Metric name: inhibition at 10 µg/mL (%)

> print(dat)
                              smiles.string  value.measured
1  Cc1nn(-c2ccc(Cl)c(Cl)c2)c2nc(C(F)(F)F)[nH]c(=S)c12              52
2         Cc1cc2nc(-c3ccc(Cl)cc3)sc(=O)n2n1              17
3  Cc1nn(-c2cccc([N+](=O)[O-])c2)c2nc(C(F)(F)F)sc(=S)c12            71.2
4          Cc1n[nH]c2nc(-c3ccccc3)sc(=O)c12              16
5   Cc1nn(C(C)(C)C)c2nc(-c3ccccc3)sc(=S)c12              14
6   Cc1nn(C(C)(C)C)c2nc(-c3ccccc3)sc(=O)c12              14
